Test system: OVCAR-3 ovarian
Assay: NCI-60 one-dose screen, 48 h
Details: 10 µM unless noted
Method: Growth inhibition of the OVCAR-3 human tumor cell line is measured as a screen for anti-cancer activity. Cells are grown in 96 well plates and exposed to the test compound for 48 hours. Compounds are tested at a single concentration, which is 10^-5 M for most compounds. The reported endpoint is percent growth (GI% or GIPRCNT), where numbers from 0 - 100% represent growth inhibition, and numbers from -100% - 0 represent cell death. For example, a value of 40 represents 60% growth inhibition. […]
The panel holds about 83,000 compounds, 20% with a hit somewhere; the sample as a whole holds those more often. Calls of active or inactive are those of the source. Rule for the calls: active = growth percent below 10; inactive = the rest.
Outcome field: choose from true (1) for active, false (0) for inactive

Recorded results for 3 compounds are shown here.
[
  {
    "Compound": "COc1cc(NCC(C)(O)CN(CC(C)C)CC(C)C)c2nc(C)ccc2c1 (centres undefined)",
    "Target Under Test": "OVCAR-3 ovarian",
    "Discrete Label": "false (0)"
  },
  {
    "Compound": "CC(C)CN(C(=O)c1ccc(Cl)cc1)c1c(N)n(CC(C)C)c(=O)[nH]c1=O",
    "Target Under Test": "OVCAR-3 ovarian",
    "Discrete Label": "false (0)"
  },
  {
    "Compound": "Fc1ccc2nc3c(cc2c1)CSc1nnc(-c2ccc[nH]c2=S)n1N3",
    "Target Under Test": "OVCAR-3 ovarian",
    "Discrete Label": "false (0)"
  }
]

Hello, I am checking results. What call was entered for Cc1[nH]n(C(=O)c2ccncc2)c(=O)c1N=Nc1ccc(F)c(Cl)c1 ?
false (0)

And then Cc1ccc2nc3c(cc2c1)CSc1nnc(-c2ccc[nH]c2=S)n1N3 , what is it?
false (0)

====

System: K-562 leukemia
Assay: NCI-60 one-dose screen, 48 h (100 = growth as untreated, 0 = no growth, -100 = all killed)
Details: 10 µM unless noted
About 83,000 compounds went through this panel and 20% of them were active in at least one assay; those are over-represented in the sample as a whole.
Please provide measured growth for the entries that follow.
One number for each entry, in %.

[
  {
    "Compound": "CC(=O)O[C@H]1CC[C@@]2(C)[C@@H](CC[C@@H]3[C@@H]2CC[C@@]2(C)[C@H]3CC[C@]2(O)C(C)=O)C1",
    "Target Under Test": "K-562 leukemia",
    "growth [%]": 100
  },
  {
    "Compound": "COC(=O)C1NC(=S)N(c2ccc(Cl)cc2)C1/C=C/c1ccccc1 (stereo not drawn)",
    "Target Under Test": "K-562 leukemia",
    "growth [%]": 106
  },
  {
    "Compound": "C=C(C)[C@@H]1CC[C@]2(C=O)CC[C@]3(C)[C@H](CC[C@@H]4[C@@]5(C)CCCNC(C)(C)[C@@H]5CC[C@]43C)[C@@H]12",
    "Target Under Test": "K-562 leukemia",
    "growth [%]": 0.984
  }
]

Each of the following entries comes with a recorded value; kindly state growth for each.
1. CC(C)CCSc1nc(NNC(N)=O)c(C#N)c(-c2ccccc2)n1
2. C#CCNC(=O)[C@H](Cc1ccccc1)NC(=O)[C@]12CC[C@@H](C(=C)C)[C@@H]1[C@H]1CC[C@@H]3[C@@]4(C)Cc5c([nH]c6ccccc56)C(C)(C)[C@@H]4CC[C@@]3(C)[C@]1(C)CC2

[99.2, 83.9]

Each of the following entries comes with a recorded value; kindly state growth for each.
1. COc1ccc(C(=O)c2cc3c(N)c(C(=O)Nc4cccc5ccccc45)sc3nc2C)cc1
2. CC(C)Cc1ccc(C(C)C(=O)NCc2c[nH]c3ccc(Cl)cc23)cc1 (stereo not drawn)
3. Nc1ccccc1NC(=O)c1ccc(CN2CCC/C(=C\c3cccc(Cl)c3)C2=O)cc1
4. COc1c(Cl)cc(Cl)c2ccc(C=C3C(=O)N(C)C(=O)N(C)C3=O)nc12
5. CC1(C)CC[C@]2(C(=O)NCC#CCN3CCOCC3)CC[C@]3(C)C(=CC[C@@H]4[C@@]5(C)Cc6c([nH]c7ccccc67)C(C)(C)[C@@H]5CC[C@]43C)[C@@H]2C1

[7.36, 71.3, 4.21, 100, 65.3]

Each of the following entries comes with a recorded value; kindly state growth for each.
1. COc1ccc(Cn2nc3c(c2-c2cc(OC)c(OC)c(OC)c2)-c2oncc2CC3)cc1
2. CCOC(=O)c1cnc2c(cnn2CC)c1NN=C(C)C
3. COc1ccc(C(=O)c2cc3c(N)c(C(=O)Nc4cccc(Cl)c4C)sc3nc2C)cc1
4. COc1cc(NCCCN(CC(C)C)C2CCCC2)c2ncccc2c1
5. [O-][n+]1ccccc1CCN(O)CCc1cccc[n+]1[O-]
6. COc1c(Cl)cc(Cl)c2ccc(C=C3C(=O)NC(=S)NC3=O)nc12

1. 39.9
2. 62.9
3. 2.9
4. 39.2
5. 106
6. 102

Each of the following entries comes with a recorded value; kindly state growth for each.
1. FCc1nc2nc(Cl)c(Cl)nc2[nH]1
2. CC(=O)N1N=C(c2cccc(Nc3ccncc3)c2)CC1c1ccccc1 (stereo not drawn)

[93, 11.8]

These measurements were taken from PubChem BioAssay (NCI).
